B1: NCF4 (parent)
chain: FGPDSKSSALACTLPTLPAKVYVG

Variants of: B1
Assay: protein stability index of a GFP-peptide fusion (GPS, HEK-293T) (PSI 1-6); higher = more stable;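 note: lentivirally expressed fusions sorted by FACS into six bins by GFP to DsRed ratio, PSI derived from sequencing read proportions per bin multiplied by bin number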
Settings: c terminus: a fixed tail appended
The following variants are shown together with reported protein stability index values.
Answer with a number only.

In plain terms, FGPDSDSSALACTLPTLPAKVYVG [K6D] has a documented protein stability index of 3.17

Query FVPDSKSSALACTLPTLPAKVYVG [G2V] yields protein stability index of 3.38

// sample FGPDSKSSALACTLPTLPAPVYVG [K20P] , its protein stability index was 2.35

Reported protein stability index ( FGPDSKSSALACTDPTLPAKVYVG [L14D] ) = 2.84

Memo: FGPDSKSSALNCTLPTLPAKVYVG [A11N] , reported protein stability index: 2.78

Lookup result for FGPDSKSSALACTLPTLPAKVKVG [Y22K] ; measured protein stability index: 2.95

// protein stability index value for FGPDSKSSALACTLPTLQAKVYVG [P18Q] : 2.02

Form field protein stability index, entry FGPDSGSSALACTLPTLPAKVYVG [K6G] : 2.48

More entries:
response.value for FGPTSKSSALACTLPTLPAKVYVG [D4T] (field: protein stability index) = 2.14

Documented protein stability index of FGPDSKSSALAHTLPTLPAKVYVG [C12H] : 3.16

GET /value?item= FGPDSKSSALACTLPTLPSKVYVG [A19S] &field=protein stability index returns 2.14

Cited source: the supplement of paper PMC10567573
